Target: T1, human IGF2^1-67 (mature insulin-like growth factor 2) (human, UniProt P01344 25-91, biotinylated (site not stated) where immobilised on the chip (Tables 1-4))
T1 construct: mature; also called mature IGF2; biotinylated IGF2
T1 sequence (P01344 25-91): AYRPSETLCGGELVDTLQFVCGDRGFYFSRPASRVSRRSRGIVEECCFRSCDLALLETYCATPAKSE
Assay: SPR steady state, biotin-IGF2 on chip, pH 7.4
Procedure: Surface plasmon resonance (SPR) binding analysis of recombinant M6P/IGF2R domain 11 mutants interaction with IGF2. Kon indicates association (on) rate; koff, dissociation (off) rate; RU, response units. Binding to IGF2 assessed with BIAcore T200 using purified biotinylated IGF2 and IGF1 on a streptavidin biosensor chip. […] All experiments were carried out at 25° C. in HBS-EP buffer (pH 7.4), were repeated 2-5 times on two independent BIAcore chips. nd=not determined. […]
Recorded metric: pKd
Please treat pKd as minus the base-10 logarithm of the molar concentration.

Consider the worked cases shown below.
Request: Specify pKd for domain 11^AB5 K1631W (receptor, See m5; HI loop mutant) MKSNEHDDCQVTNPSTGHLFDLSSLSGRAGFTAAYAKGWGVYMSICGENENCPPGVGACFGQTRISVGKANKRLRYVDQVLQLVYKDGSPCPSKSGLSYKSVISFVCRPEAGPTNRPMLISLDWQTCTLFFSWHTPLACEQATECSV and stop.
Response: 7.92

Request: Item domain 11^AB5 Q1632E (receptor, See m5; HI loop mutant) MKSNEHDDCQVTNPSTGHLFDLSSLSGRAGFTAAYAKGWGVYMSICGENENCPPGVGACFGQTRISVGKANKRLRYVDQVLQLVYKDGSPCPSKSGLSYKSVISFVCRPEAGPTNRPMLISLDKETCTLFFSWHTPLACEQATECSV : provide pKd
Response: 7.28

// moving on: another record for pKd
Request: Given the binder IGF2R domain 11^AB3 (receptor, His6-tagged soluble domain 11; also called domain 11^E1544K, K1545S, L1547V; 1542YSKSGV1547) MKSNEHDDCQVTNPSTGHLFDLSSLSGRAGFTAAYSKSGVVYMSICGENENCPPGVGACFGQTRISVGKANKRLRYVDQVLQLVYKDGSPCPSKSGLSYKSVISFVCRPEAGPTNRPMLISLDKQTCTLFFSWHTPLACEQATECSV , write its reported pKd.
Response: 7.81
